Assay Explanation: in vitro
Condition Notes: PAMPA, pH 7.4
Description: Permeability of the compound at pH 7.4 buffer after 3 hrs by PAMPA
Quick reference for Papp at 3 h among some compounds
The figure you give is taken to be in ×10⁻⁶ cm/s; do not add the unit.

## Task // Papp at 3 h lookup, key: COCCCCn1c(C(=O)N(CC(C)C)[C@@H]2CNC[C@H](C(=O)N3CCOCC3)C2)nc2ccccc21
## Result 34.5

* * *

Assay Explanation: Tmax in cynomolgus monkey at 0.1 mg/kg, iv or 1 mg/kg, po administered as cassette dose by LC-MS/MS analysis
Type: ADME, organism-based, Macaca fascicularis
Condition Notes: in vivo
Quick reference for Tmax among some molecules
The figure you give is taken to be in h; do not add the unit.

- Smiles Entry: "COCCCCn1c(C(=O)N(CC(C)C)[C@@H]2CNC[C@H](C(=O)N3CCOCC3)C2)nc2ccccc21"
  Quantity Unit: "h"
  Tmax: 1.67

Consider the additional molecule presented here.
## Task // Tmax lookup, key: COCCCOc1cc(C[C@@H](C[C@H](N)[C@@H](O)C[C@H](C(=O)NCC(C)(C)C(N)=O)C(C)C)C(C)C)ccc1OC
## Result 3.33

* * *

Assay Explanation: in vivo
Condition Notes: rat, po, 1 mg/kg
Property: bioavailability (%)
The figure you give is taken to be in %; do not add the unit.

These solved cases illustrate the format of a correct answer.
- Smiles Entry: "COCCCCc1c(C(=O)N(CC(C)C)[C@@H]2CNC[C@H](C(=O)N3CCOCC3)C2)cnn1-c1ccccc1"
  bioavailability, %: 0.3
- Smiles Entry: "COCCCCn1c(C(=O)N(CC(C)C)[C@H]2CCCNC2)nc2ccccc21"
  bioavailability, %: 12
- Smiles Entry: "CC(C)CN(C(=O)c1nc2ccccc2n1C)[C@@H]1CNC[C@H](C(=O)N2CCOCC2)C1"
  bioavailability, %: 17
- Smiles Entry: "CCn1c(C(=O)N(CC(C)C)[C@@H]2CNC[C@H](C(=O)N3CCOCC3)C2)nc2ccccc21"
  bioavailability, %: 14

## Task // bioavailability lookup, key: COCCCCn1c(C(=O)N(CC(C)C)[C@@H]2CNC[C@H](C(=O)N3CCOCC3)C2)nc2ccccc21
## Result 14

* * *

These compounds were tested on Renin (Homo sapiens, UniProt P00797); IC50 is the recorded read-out.
The figure you give is taken to be in nM; do not add the unit.

These solved cases illustrate the format of a correct answer.
- Smiles Entry: "COCCCCc1c(C(=O)N(CC(C)C)[C@@H]2CNC[C@H](C(=O)N3CCOCC3)C2)nc2n1CCCC2"
  IC50, nM: 3.3
- Smiles Entry: "COCCCCc1c(C(=O)N(CC(C)C)[C@@H]2CNC[C@H](C(=O)N3CCOCC3)C2)nnn1-c1ccccc1"
  IC50, nM: 0.4
- Smiles Entry: "COCCCCn1c(C(=O)N(CC(C)C)[C@@H]2CNC[C@H](C(C)(C)O)C2)nc2ccccc21"
  IC50, nM: 2.6
- Smiles Entry: "COCCCCn1c(C(=O)N(CC(C)C)[C@H]2CCCNC2)nc2ccccc21"
  IC50, nM: 9.1
- Smiles Entry: "COCCCCn1c(C(=O)N(CC(C)C)[C@@H]2CNC[C@H](CO)C2)nc2ccccc21"
  IC50, nM: 1.5
- Smiles Entry: "COCCCCc1c(C(=O)N(CC(C)C)[C@@H]2CNC[C@H](C(=O)N3CCOCC3)C2)cnn1-c1ccccc1"
  IC50, nM: 1.3
- Smiles Entry: "CC(C)CN(C(=O)c1nc2ccccc2[nH]1)[C@@H]1CNC[C@H](C(=O)N2CCOCC2)C1"
  IC50, nM: 4
- Smiles Entry: "COCCCCn1c(C(=O)N(CC(C)C)[C@@H]2CNC[C@H](C(=O)N3CCOCC3)C2)nnc1-c1ccccc1"
  IC50, nM: 1.2

## Task // IC50 lookup, key: CC(C)CN(C(=O)c1nc2ccccc2n1C)[C@@H]1CNC[C@H](C(=O)N2CCOCC2)C1
## Result 2.9

## Task Can you handle COCCCCc1c(C(=O)N(CC(C)C)[C@@H]2CNC[C@H](C(=O)N3CCOCC3)C2)ncn1-c1ccccc1 next?
## Result 1.2

* * *

Quick reference for Cmax among some compounds
Assay Explanation: Cmax in cynomolgus monkey at 0.1 mg/kg, iv or 1 mg/kg, po administered as cassette dose by LC-MS/MS analysis
Type: ADME, organism-based, Macaca fascicularis
Condition Notes: in vivo
Returns: string containing the number followed by the unit.

- Smiles Entry: "COCCCCn1c(C(=O)N(CC(C)C)[C@@H]2CNC[C@H](C(=O)N3CCOCC3)C2)nc2ccccc21"
  Cmax: "29.1 ng/mL"

Consider the additional compound presented here.
## Task // Cmax lookup, key: COCCCOc1cc(C[C@@H](C[C@H](N)[C@@H](O)C[C@H](C(=O)NCC(C)(C)C(N)=O)C(C)C)C(C)C)ccc1OC
## Result 3.5 ng/mL

* * *

Assay Explanation: in vivo
Condition Notes: rat, po, 1 mg/kg
Quick reference for bioavailability among some compounds
The figure you give is taken to be in %; do not add the unit.

## Task // bioavailability lookup, key: CC(C)CN(C(=O)c1nc2ccccc2[nH]1)[C@@H]1CNC[C@H](C(=O)N2CCOCC2)C1
## Result 8.2

## Task Can you handle COCCCCc1c(C(=O)N(CC(C)C)[C@@H]2CNC[C@H](C(=O)N3CCOCC3)C2)nc2ccccn12 next?
## Result 2.2

## Task Can you handle COCCCCn1c(C(=O)N(CC(C)C)[C@@H]2CNC[C@H](CO)C2)nc2ccccc21 next?
## Result 9.6

## Task Can you handle COCCCCc1c(C(=O)N(CC(C)C)[C@@H]2CNC[C@H](C(=O)N3CCOCC3)C2)nnn1-c1ccccc1 next?
## Result 1.9

## Task Can you handle COCCCCn1c(C(=O)N(CC(C)C)[C@@H]2CNC[C@H](C(=O)N3CCOCC3)C2)ccc1-c1ccccc1 next?
## Result 5.4

* * *

Assay Explanation: in vivo
Condition Notes: rat, iv, 0.1 mg/kg
Quick reference for AUC among some molecules
The figure you give is taken to be in ng·h/mL; do not add the unit.

These solved cases illustrate the format of a correct answer.
- Smiles Entry: "COCCCCc1c(C(=O)N(CC(C)C)[C@@H]2CNC[C@H](C(=O)N3CCOCC3)C2)cnn1-c1ccccc1"
  Reported Result: 20.8
- Smiles Entry: "COCCCCn1c(C(=O)N(CC(C)C)[C@@H]2CNC[C@H](C(=O)N3CCOCC3)C2)nc2ccccc21"
  Reported Result: 68
- Smiles Entry: "CCCCCNc1nc(C(C)(C)C)ncc1C(=O)N(CC(C)C)[C@@H]1CNC[C@H](C(=O)N2CCOCC2)C1"
  Reported Result: 27.3

Consider the additional molecule presented here.
## Task // AUC lookup, key: COCCCCn1c(C(=O)N(CC(C)C)[C@H]2CCCNC2)nc2ccccc21
## Result 52.1

* * *

Target System: Renin (Homo sapiens, UniProt P00797)
Sequence (P00797 whole entry): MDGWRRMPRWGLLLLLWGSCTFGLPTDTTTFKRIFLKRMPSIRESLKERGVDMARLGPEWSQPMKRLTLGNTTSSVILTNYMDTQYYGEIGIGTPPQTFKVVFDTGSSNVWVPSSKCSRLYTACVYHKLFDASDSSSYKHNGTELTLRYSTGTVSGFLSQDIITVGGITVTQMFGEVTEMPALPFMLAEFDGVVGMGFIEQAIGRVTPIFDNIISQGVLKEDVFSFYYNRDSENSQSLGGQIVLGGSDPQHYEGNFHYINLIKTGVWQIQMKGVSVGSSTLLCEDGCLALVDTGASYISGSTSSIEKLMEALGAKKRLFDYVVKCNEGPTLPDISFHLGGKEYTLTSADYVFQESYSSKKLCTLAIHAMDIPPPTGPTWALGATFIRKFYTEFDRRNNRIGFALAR
Quick reference for pIC50 among some compounds
Reminder that pIC50 is minus the log10 of a molar concentration.

## Task // pIC50 lookup, key: COCCCCn1c(C(=O)N(CC(C)C)[C@@H]2CNC[C@H](C(C)(C)O)C2)nc2ccccc21
## Result 9.14

## Task Can you handle COCCCCn1c(C(=O)N(CC(C)C)[C@@H]2CNC[C@H](C(=O)N3CCOCC3)C2)cnc1-c1ccccc1 next?
## Result 8.36

## Task Can you handle COCCCCc1c(C(=O)N(CC(C)C)[C@@H]2CNC[C@H](C(=O)N3CCOCC3)C2)ncn1-c1ccccc1 next?
## Result 9.08

## Task Can you handle COCCCCn1nc(C(C)(C)C)cc1C(=O)N(CC(C)C)[C@@H]1CNC[C@H](C(=O)N2CCOCC2)C1 next?
## Result 8.70

## Task Can you handle COCCCCn1c(C(=O)N(CC(C)C)[C@@H]2CNC[C@H](CO)C2)nc2ccccc21 next?
## Result 9.55
